Counter-ions that a name gives are not always drawn.
endpoint label: melting point (°C)

The value of melting point measured for the compound O=C(Nc1ccc2[nH]ncc2c1)O[C@@H](c1cc(F)cc(Cl)c1)[C@@H]1CCCCN1 (as salt: hydrochloride) turned out to be 226

The value of melting point measured for the compound CN1CCCCC1C(NC(=O)Nc1ccc2[nH]nc(C#Cc3ccc(F)cc3)c2c1)c1ccccc1 (stereo not shown) (as salt: fumaric acid salt) turned out to be 244

The value of melting point measured for the compound CN(C(=O)NC(c1ccccc1)C1CCCCN1C)c1ccc2[nH]ncc2c1 (stereo not shown) (as salt: fumaric acid salt) turned out to be 205

The value of melting point measured for the compound O=C(Nc1ccc2[nH]ncc2c1)NC(c1cc(F)cc(Cl)c1)C1CCCCN1 (stereo not shown) turned out to be 185

The value of melting point measured for the compound O=C(Nc1ccc2[nH]ncc2c1)N[C@@H](c1ccccc1)[C@@H]1CCCCN1 turned out to be 195

The value of melting point measured for the compound CN1CCCCC1C(c1ccccc1)N(C)C(=O)Nc1ccc2[nH]ncc2c1 (stereo not shown) (as salt: fumaric acid salt) turned out to be 194

The value of melting point measured for the compound CN1CCCCC1C(NC(=O)Nc1ccc2[nH]nc(C#Cc3cccnc3)c2c1)c1ccccc1 (stereo not shown) (as salt: fumaric acid salt) turned out to be 230

The value of melting point measured for the compound CN1CCCCC1C(NC(=O)Nc1ccc2[nH]nc(CCc3ccccc3)c2c1)c1ccccc1 (stereo not shown) (as salt: fumaric acid salt) turned out to be 205

The value of melting point measured for the compound Nc1n[nH]c2ccc(NC(=O)N[C@@H](c3ccc(Cl)c(Cl)c3)[C@@H]3CCCCN3)cc12 (as salt: hydrochloride) turned out to be 214

The value of melting point measured for the compound CN1CCCCC1C(NC(=O)Nc1ccc2[nH]nc(NC(=O)c3ccccc3)c2c1)c1ccccc1 (stereo not shown) (as salt: fumarate) turned out to be 235

----------
System: MIA PaCa-2 cells (human pancreatic carcinoma cells)
test description: Proliferation of MIA PaCa-2 cells, intracellular ATP, CellTiter-Glo test
Format: cell-based
measurement conditions: 96 hours
endpoint label: IC50 (µM)

Consider the worked cases shown below.
The value of IC50 measured for the molecule O=C(Nc1ccc2[nH]ncc2c1)O[C@H](c1ccc(Cl)c(Cl)c1)[C@H]1CCCCN1 [Ex 37] turned out to be 2.45

The value of IC50 measured for the molecule CN1CCCCC1C(NC(=O)Nc1ccc2[nH]nc(-c3ccccn3)c2c1)c1ccccc1 (stereo not drawn) [Ex 15] turned out to be 2.8

1: O=C(Nc1ccc2[nH]ncc2c1)N[C@@H](c1ccc(Cl)c(Cl)c1)[C@@H]1CCCCN1 [Ex 4]
2: CN1CCCCC1C(NC(=O)Nc1ccc2[nH]nc(C#Cc3ccc(F)cc3)c2c1)c1ccccc1 (stereo not drawn) [Ex 24]
3: CN1CCCCC1C(OC(=O)Nc1ccc2[nH]ncc2c1)c1cc(F)cc(Cl)c1 (stereo not drawn) [Ex 36]
Exam item: list the entries in increasing order of IC50. Return value: ordered labels per request.
2, 1, 3

----------
Below, each entry is listed with its recorded IC50.
system: AKT1 (Homo sapiens, UniProt P31749, S473D)
Sequence (P31749 118-480 S473D limits assumed): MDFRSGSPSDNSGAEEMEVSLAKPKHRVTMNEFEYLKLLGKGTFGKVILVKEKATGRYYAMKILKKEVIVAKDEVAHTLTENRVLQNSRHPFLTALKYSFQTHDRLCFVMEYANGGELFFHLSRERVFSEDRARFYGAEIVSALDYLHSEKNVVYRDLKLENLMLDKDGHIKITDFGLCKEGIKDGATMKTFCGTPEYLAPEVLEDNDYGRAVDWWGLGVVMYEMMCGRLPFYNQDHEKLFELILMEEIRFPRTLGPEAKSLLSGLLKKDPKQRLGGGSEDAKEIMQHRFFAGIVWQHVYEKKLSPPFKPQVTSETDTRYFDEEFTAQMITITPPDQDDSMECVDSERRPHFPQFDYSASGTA
test description: Determination of the IC50 for AKT1 (HTRF)
measurement conditions: AKT1 without PH domain, activated by PDK1

Consider the worked cases shown below.
The value of IC50 measured for the compound O=C(Nc1ccc2[nH]ncc2c1)O[C@@H](c1ccc(Cl)c(Cl)c1)[C@@H]1CCCCN1 [Ex 38b] turned out to be < 0.1 µM

The value of IC50 measured for the compound O=C(Nc1ccc2[nH]ncc2c1)N[C@H](c1ccccc1)[C@H]1CCCCN1 [Ex 9] turned out to be 0.1 to 0.5 µM

The value of IC50 measured for the compound O=C(Nc1ccc2[nH]ncc2c1)O[C@@H](c1cccc(Br)c1)[C@@H]1CCCCN1 [Ex 46] turned out to be < 0.1 µM

The value of IC50 measured for the compound CC(C)(C)c1ccc(NC(=O)c2cccc(C(OC(=O)Nc3ccc4[nH]ncc4c3)[C@@H]3CCCCN3)c2)cc1 (stereo partly drawn) [Ex 42] turned out to be 0.5 to 2 µM

The value of IC50 measured for the compound O=C(Nc1ccc2[nH]ncc2c1)O[C@@H](c1cc(F)cc(Cl)c1)[C@@H]1CCCCN1 [Ex 35] turned out to be < 0.1 µM

More entries:
The value of IC50 measured for the compound O=C(Nc1ccc2[nH]nc(-c3ccncc3)c2c1)N[C@@H](c1ccc(Cl)c(Cl)c1)[C@@H]1CCCCN1 [Ex 16] turned out to be 0.1 to 0.5 µM

The value of IC50 measured for the compound O=C(Nc1ccc2[nH]ncc2c1)O[C@H](c1cc(F)cc(Cl)c1)[C@@H]1CCCCN1 [Ex 40] turned out to be 0.5 to 2 µM

The value of IC50 measured for the compound CN1CCCCC1C(NC(=O)Nc1ccc2[nH]nc(C#Cc3ccccc3)c2c1)c1ccccc1 (stereo not drawn) [Ex 23] turned out to be < 0.1 µM

The value of IC50 measured for the compound CN1CCCCC1C(NC(=O)Nc1ccc2[nH]nc(C#Cc3ccc(F)cc3)c2c1)c1ccccc1 (stereo not drawn) [Ex 24] turned out to be < 0.1 µM

The value of IC50 measured for the compound CN1CCCCC1C(NC(=O)Nc1ccc2[nH]nc(-c3nc4ccccc4[nH]3)c2c1)c1ccccc1 (stereo not drawn) [Ex 17] turned out to be < 0.1 µM

The value of IC50 measured for the compound C=CCN1CCCC[C@H]1[C@@H](NC(=O)Nc1ccc2[nH]ncc2c1)c1ccccc1 [Ex 10] turned out to be 0.1 to 0.5 µM
